Test system: RPMI-8226 leukemia
assay.comment: NCI-60 one-dose screen, 48 h (100 = growth as untreated, 0 = no growth, -100 = all killed)
protocol.conditions: 10 µM unless noted
About 83,000 compounds went through this panel and 20% of them were active in at least one assay; those are over-represented in the sample as a whole.
# growth per entry
# output: bare number, implied unit %

molecule: c1ccc2[nH]c(Cc3nc4ccccc4[nH]3)nc2c1
target.or.system: RPMI-8226 leukemia
units.label: %
growth: 71.9

molecule: CN1CCCN(C(c2ccccc2)c2ccc(Cl)cc2)CC1 (stereo not given)
target.or.system: RPMI-8226 leukemia
units.label: %
growth: 101

molecule: C=CCC(O)C=C (stereo not given)
target.or.system: RPMI-8226 leukemia
units.label: %
growth: 105

molecule: NCCCN1CCCC1=O
target.or.system: RPMI-8226 leukemia
units.label: %
growth: 107

molecule: OCc1cccnc1
target.or.system: RPMI-8226 leukemia
units.label: %
growth: 102

[ask] Please tell me: growth of CCN(C(=O)Nc1ccccc1Cl)c1ccccc1 , system RPMI-8226 leukemia?
[reply] 107

[ask] What do we get for CCCCN(C(=O)CC)c1ccccc1 ?
[reply] 85.1

[ask] What do we get for C1CCc2onc(-c3noc4c3CCCCC4)c2CC1 ?
[reply] 111

Measured values drawn from PubChem BioAssay (NCI) for this set.
